Documented EC50 across a set of binders
Target: T1, mouse BCMA with a His tag (ACROBiosystems, Catalog No.: BCA-M52H3) (mouse)
T1 construct: Bought His-tagged recombinant protein
T1 chain: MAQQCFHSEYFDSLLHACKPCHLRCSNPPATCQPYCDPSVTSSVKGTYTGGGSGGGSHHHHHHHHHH
Assay: ELISA, plate-coated mouse BCMA-His
Description: The recombinantly expressed antibodies were used to assess binding activity to BCMA of different species origins by conventional ELISA according to the known art. […] The ability for antibodies of the present disclosure to bind human BCMA was measured with an ELISA assay. […] The absorbance at 450 nm is read on a microplate reader. The half maximal effective concentration (EC50) is calculated using GraphPad Prism 6 software. […]
Expressed in µg/mL, but write only the number.

Example cases with answers are listed next.
1) SCT-Aa17(h/h) (antibody, V domains shown, Full IgG format, chimeric: human IgG1 heavy chain constant region, human kappa light chain constant region) VH: EVQLQQSGPELVKPGASVKMSCKASGYTFTSYVMDWVKQKPGQGLEWIGYINPYNDGTKYNEKFKGKATLTSDKSSSTVYMELSSLTSEDSAVYHCARSDYDYGYAMDYWGQGTSVTVSS VL: DIQMTQSPASLSLSVGETVTITCRASENIYSNLAWYQQKQGNSPQLLVYSATHLADGVPSRFSGSGSGTQYSLKINSLQSEDFGCYYCQHFWGPPWTFGGGTKLEIK	4.33
2) SCT-Aa08(m/m) (antibody, V domains shown, Full IgG format: mouse IgG1 heavy chain constant region, mouse kappa light chain constant region) VH: QVQLQQSDAELVKPGASVKISCKVSGYTFIDHTIHWMKQRPEQGLEWIGYIYPRIDSSKCNEKFKDKATLTADKSSNTAYIQLNSLTSEDSAVYFCARWDYEGFDYWGQGTTLTVSS VL: DIVMTQSPATLSVTPGDRVSLSCRASQSISDYLHWYQQKSHESPRLLIKYASQSISGIPSRFSGSGSGSDFTLSINSVEPEDVGVYYCQNGHSFPPTFGSGTKLEIK	0.682

Shifting focus to the binder that follows.
Qu. Requested read-out: EC50. Entry: SCT-Aa10(m/m) (antibody, V domains shown, Full IgG format: mouse IgG1 heavy chain constant region, mouse kappa light chain constant region) VH: QVQLQQSDAELVKPGASVKISCKVSGYTFTDHTIHWMKQRPEQGLEWIGYIFPRDGNTKYNEKFKGKATMTADKSSSTAYMQLNSLTSEDSAVYFCARWDYEGFDCWGQGTTLTVSS VL: DIVMTQSPATLSVTPGDRVSLSCRASQSISDYLHWYQQKSHESPRLLIKYASQSISGIPSRFSGSGSGSDFTLSINSVEPEDVGVYFCQNGHSFPPTFGSGTKLEIK
Ans. 8.03

Where do the numbers come from? From patent US20210332145A1.
